Source of measurements: ChEMBL document CHEMBL3769361

Recorded measurements of pIC50, one per entry
# System: Plasmodium berghei
# Protocol notes: Antiplasmodial activity against liver stage Plasmodium berghei infected in Huh7 cells assessed as inhibition of parasite infection incubated for 1 hr prior to infection measured at 24 hrs by luciferase reporter gene assay
# Assay type: functional, organism-based
# Assay setup: Huh-7, Liver
pIC50: −log10 of the molar value.
Value kind: pIC50

                                   molecule              target  recorded_result
0  CCCCOc1c(NCCCCCNc2cc(OC)cc3cccnc23)c(=O)c1=O  Plasmodium berghei             5.66
1  COc1cc(NC(C)CCCNc2c(NCCCC(C)Nc3cc(OC)cc4cccnc34)c(=O)c2=O)c2ncccc2c1 (stereo unspecified)  Plasmodium berghei             5.89
2  COc1cc(NC(C)CCCN)c2ncccc2c1 (stereo unspecified)  Plasmodium berghei             5.02
3  CCCCOc1c(NCCCNc2cc(OC)cc3cccnc23)c(=O)c1=O  Plasmodium berghei             5.74
4  COc1cc(NC(C)CCCN/C(C)=C2/CCOC2=O)c2ncccc2c1 (stereo unspecified)  Plasmodium berghei             5.00
5  CCCCOc1c(NCCCC(C)Nc2cc(OC)cc3cccnc23)c(=O)c1=O (stereo unspecified)  Plasmodium berghei             5.89
